Assay: Mouse pharmacokinetics
Format: in vivo, Mouse (male, CD1)
Settings: male, CD1, mouse, whole blood, po, 100 mg/kg
RESULT TYPE: AUC(0-inf)

Look up AUC(0-inf): C[C@H]1CN(c2n[nH]c3nc(N[C@H]4CC[C@H](NS(=O)(=O)CCC(F)(F)F)CC4)ncc23)CCO1 [Compound 7] 39.4 µg·h/mL

----------
Test: Rat pharmacokinetics
Type: in vivo, Rat (male, SD)
Details: male, Sprague Dawley, whole blood, po, 10 mg/kg
RESULT TYPE: Cmax (ng/mL)
Please give a number only; it is taken to be in ng/mL.

Data request, read-out Cmax, for `C[C@H]1CN(c2n[nH]c3nc(N[C@H]4CC[C@H](NS(=O)(=O)CCC(F)(F)F)CC4)ncc23)CCO1` 1040
